Target: human Tyro3 (Homo sapiens, UniProt Q06418)
Construct: GST (N)
Sequence (Q06418 455-890 limits assumed): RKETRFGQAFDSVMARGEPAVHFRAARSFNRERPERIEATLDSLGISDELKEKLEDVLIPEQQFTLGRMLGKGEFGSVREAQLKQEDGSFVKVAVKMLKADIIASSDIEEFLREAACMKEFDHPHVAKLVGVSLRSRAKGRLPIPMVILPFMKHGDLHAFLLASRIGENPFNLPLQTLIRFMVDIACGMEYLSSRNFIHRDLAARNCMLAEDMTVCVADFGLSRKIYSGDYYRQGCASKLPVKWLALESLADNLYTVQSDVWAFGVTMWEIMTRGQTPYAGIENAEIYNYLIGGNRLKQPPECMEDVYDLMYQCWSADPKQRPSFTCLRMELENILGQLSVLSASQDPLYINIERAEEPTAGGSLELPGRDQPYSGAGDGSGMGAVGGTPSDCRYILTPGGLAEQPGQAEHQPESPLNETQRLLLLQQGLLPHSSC
Assay: Kinase enzymatic activity assay (33P-radiolabeled phosphate transfer), Tyro3
Conditions: recombinant human Tyro3 (455-end), poly(4:1 glu:tyr) substrate, 30 minutes
assayEndpoint: IC50

Fc1ccc(Oc2ncnc3cc(OCCN4CCOCC4)cc(OC4CCOCC4)c23)c(Cl)c1	1 to 10 µM

Entry `COc1cc(N2CCOCC2)cc2ncnc(Nc3nc(C(F)(F)F)cs3)c12` : IC50 on human Tyro3 (Homo sapiens, UniProt Q06418) = > 10 µM

I looked up `OC[C@@H](O)COc1cc(OC2CCOCC2)c2c(Nc3nc(C(F)(F)F)cs3)ncnc2c1` and its IC50 for human Tyro3 (Homo sapiens, UniProt Q06418) was > 10 µM

Hey, human Tyro3 (Homo sapiens, UniProt Q06418) data for `Cc1nc(Sc2ncnc3cc(OCC4CCN(C)CC4)cc(OC4CCOCC4)c23)oc1C` : IC50 came out at 1 to 10 µM

---

// reported IC50 for each item listed
Biological target: human Axl (Homo sapiens, UniProt P30530)
Construct: GST (N)
Sequence (P30530 473-894 limits assumed): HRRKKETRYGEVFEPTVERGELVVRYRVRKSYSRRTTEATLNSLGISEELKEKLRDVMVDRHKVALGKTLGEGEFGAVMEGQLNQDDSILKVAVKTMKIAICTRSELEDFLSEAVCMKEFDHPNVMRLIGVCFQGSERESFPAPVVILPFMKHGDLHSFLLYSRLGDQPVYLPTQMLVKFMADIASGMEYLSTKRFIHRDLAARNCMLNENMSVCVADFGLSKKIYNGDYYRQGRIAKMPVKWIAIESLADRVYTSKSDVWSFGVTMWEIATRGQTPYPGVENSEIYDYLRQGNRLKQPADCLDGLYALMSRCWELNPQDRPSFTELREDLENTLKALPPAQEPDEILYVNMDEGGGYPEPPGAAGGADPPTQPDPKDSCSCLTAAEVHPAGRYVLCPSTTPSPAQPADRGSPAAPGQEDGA
Assay: Kinase enzymatic activity assay (33P-radiolabeled phosphate transfer), Axl
Settings: recombinant human Axl (473-end), poly(4:1 glu:tyr) substrate, 30 minutes

Take a look at these entries with their results.
Fc1ccc(Oc2ncnc3cc(OCCN4CCOCC4)cc(OC4CCOCC4)c23)c(Cl)c1	1 to 10 µM
CN1CCN(CCOc2cc(OC3CCOCC3)c3c(OC4CCCCC4)ncnc3c2)CC1	0.5 to 1 µM
CN1CCN(CCOc2cc(OC3CCOCC3)c3c(Oc4ccccc4)ncnc3c2)CC1	< 0.5 µM
CN1CCC(COc2cc(OC3CCOCC3)c3c(Nc4ccon4)ncnc3c2)CC1	< 0.5 µM
COc1ncnc2cc(OCCOCCN(C)C)cc(OC3CCOCC3)c12	< 0.5 µM
CN1CCC(COc2cc(OC3CCOCC3)c3c(Nc4ncn[nH]4)ncnc3c2)CC1	> 10 µM
COC(=O)c1cccc(Oc2ncnc3cc(OCCCN4CCOCC4)cc(OC)c23)c1	> 10 µM
COC(=O)Cc1cccc(Oc2ncnc3cc(OCCN4CCN(C)CC4)cc(OC4CCOCC4)c23)c1	1 to 10 µM
COc1cc(OCCN2CCN(C)CC2)cc2ncnc(Oc3ccc(F)cc3Cl)c12	1 to 10 µM
COc1cc(OC2CCOCC2)c2c(Oc3ccc(F)cc3Cl)ncnc2c1	> 10 µM

For record `CN(C)CCOCCOc1cc(OC2CCOCC2)c2c(Oc3ccc(F)cc3Cl)ncnc2c1` the listed IC50 is 1 to 10 µM

---

Target: human Mer (Homo sapiens, UniProt Q12866)
Construct: GST (N)
Sequence (Q12866 578-872): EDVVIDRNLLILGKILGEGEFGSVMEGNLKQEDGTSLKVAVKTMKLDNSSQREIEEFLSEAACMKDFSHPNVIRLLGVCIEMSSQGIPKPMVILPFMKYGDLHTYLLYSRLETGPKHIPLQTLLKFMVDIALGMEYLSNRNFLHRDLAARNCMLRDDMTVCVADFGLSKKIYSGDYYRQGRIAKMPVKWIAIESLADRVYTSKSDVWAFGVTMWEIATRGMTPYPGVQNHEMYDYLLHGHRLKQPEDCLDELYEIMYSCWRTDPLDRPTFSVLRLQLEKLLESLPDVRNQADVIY
Assay: Kinase enzymatic activity assay (33P-radiolabeled phosphate transfer), Mer
Details: recombinant human Mer (578-872), poly(4:1 glu:tyr) substrate, 30 minutes
Procedure: The identification of compounds of the invention as Tyro3, Axl or Mer inhibitors was readily accomplished using the recombinant human Tyro3, Axl and Mer proteins and employing the ^33P-radiolabeled phosphate transfer assay for which the procedure is known to someone skilled in the art or as described in Example 9. […] The enzymatic activity of all three kinases was determined as follows. […] The corrected CPM in each test well was determined by subtracting the average value of Blank well values. […]
pIC50: −log10 of the molar value.
Listed next: entries and their corresponding pIC50.

CN1CCC(COc2cc(OC3CCOCC3)c3c(Sc4nccs4)ncnc3c2)CC1 [Example 2.52]	> 6.30
COCCOc1cc(OCCN2CCN(C)CC2)cc2ncnc(Sc3ccc(F)cc3)c12 [Example 4.1]	< 5.00
CN1CCC(COc2cc(OC3CCOCC3)c3c(Nc4nc(C(F)(F)F)cs4)ncnc3c2)CC1 [Example 2.23]	< 5.00
CN1CCN(c2cc(OCCCN3CCOCC3)cc3ncnc(Oc4ccc(F)cc4Cl)c23)CC1 [Example 4.9]	5.00 to 6.00
CC1(C)OC[C@H](COc2cc(OC3CCOCC3)c3c(Oc4ccc(F)cc4Cl)ncnc3c2)O1 [Example 2.9]	5.00 to 6.00
COc1cc(N2CCOCC2)cc2ncnc(Nc3nc(C(F)(F)F)cs3)c12 [Example 2.24]	< 5.00
OC[C@@H](O)COc1cc(OC2CCOCC2)c2c(Nc3nc(C(F)(F)F)cs3)ncnc2c1 [Example 2.55]	< 5.00
Cc1nc(Sc2ncnc3cc(OCC4CCN(C)CC4)cc(OC4CCOCC4)c23)oc1C [Example 2.49]	< 5.00
FC(F)(F)c1csc(Nc2ncnc3cc(OCCN4CCOCC4)cc(OC4CCOCC4)c23)n1 [Example 2.53]	< 5.00
COCCOc1cc(OCCN2CCN(C)CC2)cc2ncnc(Sc3ccc(Cl)cc3)c12 [Example 4]	< 5.00

Now take the following compound into account.
Summary: CN(C)CCN1CCN(c2cc(OC3CCOCC3)c3c(Nc4nc(C(F)(F)F)cs4)ncnc3c2)CC1 [Example 2.57] , human Mer (Homo sapiens, UniProt Q12866), pIC50 = 5.00 to 6.00

---

// pIC50 lookup, one value per entry
Target: human Mer (Homo sapiens, UniProt Q12866)
Construct: GST (N)
Experiment: Kinase enzymatic activity assay (33P-radiolabeled phosphate transfer), Mer
Conditions: recombinant human Mer (578-872), poly(4:1 glu:tyr) substrate, 30 minutes
Method: The identification of compounds of the invention as Tyro3, Axl or Mer inhibitors was readily accomplished using the recombinant human Tyro3, Axl and Mer proteins and employing the ^33P-radiolabeled phosphate transfer assay for which the procedure is known to someone skilled in the art or as described in Example 9. […] The enzymatic activity of all three kinases was determined as follows. […] The corrected CPM in each test well was determined by subtracting the average value of Blank well values. […]
pIC50: −log10 of the molar value.

Reference set (4 entries):
CN1CCC(COc2cc(OC3CCOCC3)c3c(Sc4nc(C(F)(F)F)cs4)ncnc3c2)CC1	5.00 to 6.00
Cc1cc(Nc2ncnc3cc(OCCCN4CCOCC4)cc(OC4CCOCC4)c23)on1	5.00 to 6.00
CN1CCN(CCOc2cc(OC3CCOCC3)c3c(Oc4cccc(CC(=O)NCc5ccccc5)c4)ncnc3c2)CC1	< 5.00
CN(C)CCN(C)CCOc1cc(OC2CCOCC2)c2c(Oc3ccc(F)cc3Cl)ncnc2c1	6.00 to 6.30

Value of pIC50 reported for the compound `Cc1nnc(Sc2ncnc3cc(OCC4CCN(C)CC4)cc(OC4CCOCC4)c23)s1` is < 5.00

pIC50 recorded for this compound, `CN1CCC(COc2cc(OC3CCOCC3)c3c(Nc4cc(C(F)(F)F)no4)ncnc3c2)CC1` , is 5.00 to 6.00

Reported pIC50 of `FC(F)(F)c1csc(Nc2ncnc3cc(OCCCN4CCOCC4)cc(OC4CCOCC4)c23)n1` : 5.00 to 6.00

# pIC50 (compound: `CN1CCC(COc2cc(OC3CCOCC3)c3c(Sc4nncs4)ncnc3c2)CC1` ) is 5.00 to 6.00

Noted for `COc1cc(OCCN2CCN(C)CC2)cc2ncnc(Oc3ccc(F)cc3Cl)c12` : its pIC50 reads 5.00 to 6.00

Sample `COc1cc(OCCCN2CCOCC2)cc2ncnc(Oc3cccc(C(=O)NCc4ccccc4)c3)c12` ; pIC50 observed: < 5.00

Quick note, pIC50 for `Cc1nnc(Nc2ncnc3cc(OCC4CCN(C)CC4)cc(OC4CCOCC4)c23)s1` landed at 5.00 to 6.00

---

Target: human Tyro3 (Homo sapiens, UniProt Q06418)
Construct: GST (N)
Sequence (Q06418 455-890 limits assumed): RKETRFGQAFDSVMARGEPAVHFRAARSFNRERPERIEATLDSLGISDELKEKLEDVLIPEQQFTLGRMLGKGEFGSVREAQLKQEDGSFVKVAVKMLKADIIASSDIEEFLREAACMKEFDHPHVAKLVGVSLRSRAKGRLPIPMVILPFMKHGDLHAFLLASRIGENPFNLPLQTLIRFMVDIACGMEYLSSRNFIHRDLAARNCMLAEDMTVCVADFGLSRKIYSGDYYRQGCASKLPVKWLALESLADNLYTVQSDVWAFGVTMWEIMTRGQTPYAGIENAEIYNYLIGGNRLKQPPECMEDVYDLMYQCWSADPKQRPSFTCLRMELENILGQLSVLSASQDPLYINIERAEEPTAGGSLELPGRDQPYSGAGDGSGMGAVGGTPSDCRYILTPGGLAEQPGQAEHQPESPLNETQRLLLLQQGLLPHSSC
Test: Kinase enzymatic activity assay (33P-radiolabeled phosphate transfer), Tyro3
Conditions: recombinant human Tyro3 (455-end), poly(4:1 glu:tyr) substrate, 30 minutes
IC50 reference

CN1CCC(COc2cc(OC3CCOCC3)c3c(Sc4nccs4)ncnc3c2)CC1	< 500 nM
CC(C)Oc1ncnc2cc(OCC3CCN(C)CC3)cc(OC3CCOCC3)c12	< 500 nM
Cc1nnc(Nc2ncnc3cc(OCCCN4CCOCC4)cc(OC4CCOCC4)c23)s1	> 10000 nM

Recorded IC50 (compound `COC(=O)Cc1cccc(Oc2ncnc3cc(OCCCN4CCOCC4)cc(OC)c23)c1` ): 1000 to 10000 nM

Reference source: patent US9771333B2
